system: VCaP (Prostate Carcinoma); assay: Bliss excess, mean over the matrix (fraction); higher = more synergy;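 note: after 72 h of two-drug dosing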
endpointLabel: Bliss excess
Number only, no unit.

Return Bliss excess for the following compound: O=C(c1cc(Cc2n[nH]c(=O)c3ccccc23)ccc1F)N1CCN(C(=O)C2CC2)CC1 [Olaparib] + CC1(C)CCC(CN2CCN(c3ccc(C(=O)NS(=O)(=O)c4ccc(NCC5CCOCC5)c([N+](=O)[O-])c4)c(Oc4cnc5[nH]ccc5c4)c3)CC2)=C(c2ccc(Cl)cc2)C1 [Venetoclax] (first compound max 10 µM, 7x7, partner max 1 µM) -0.0434

Return Bliss excess for the following compound: C=CCn1c(=O)c2cnc(Nc3ccc(N4CCN(C)CC4)cc3)nc2n1-c1cccc(C(C)(C)O)n1 [AZD1775] + C[C@@H]1COCCN1C2=NC(=NC(=C2)C3(CC3)[S@](=N)(=O)C)C4=C5C=CNC5=NC=C4 [AZD6738] (first compound max 1 µM, partner max 10 µM) 0.006

Return Bliss excess for the following compound: CC(=O)c1c(C)c2cnc(Nc3ccc(N4CCNCC4)cn3)nc2n(C2CCCC2)c1=O [Palbociclib] + Cc1c2c(nn1C)CSCc1cc(n(C)n1)CSc1cc(c3ccccc3c1)OCCCc1c(C(=O)O)n(C)c3c-2c(Cl)ccc13 [AZD5991] (first compound max 10 µM, 7x7, partner max 1 µM) -0.0284

Return Bliss excess for the following compound: CN(CCO)CC[C@H](CSc1ccccc1)Nc1ccc(S(=O)(=O)NC(=O)c2ccc(N3CCC([C@@H](O)c4ccccc4-c4ccc(Cl)cc4)CC3)cc2)cc1S(=O)(=O)C(F)(F)F [AZD4320] + CC(=O)O[C@H]1C(=O)[C@@]2(C)[C@H]([C@H](OC(=O)c3ccccc3)[C@]3(O)C[C@H](OC(=O)[C@H](O)[C@@H](NC(=O)c4ccccc4)c4ccccc4)C(C)=C1C3(C)C)[C@]1(OC(C)=O)CO[C@@H]1C[C@@H]2O [Paclitaxel] (first compound max 1 µM, 7x7, partner max 3 µM) 0.0175

Return Bliss excess for the following compound: Cc1nc(-c2cn3c(n2)-c2ccc(-c4cnn(C(C)(C)C(N)=O)c4)cc2OCC3)n(C(C)C)n1 [Taselisib] + O=C(Nc1ccc2[nH]nc(-c3ccncc3)c2c1)[C@@H]1CCN(CC(=O)N2CCN(c3ccc(-c4ncccn4)cc3)CC2)C1 [SCH772984] (first compound max 10 µM, 7x7, partner max 5 µM) -0.0098

Return Bliss excess for the following compound: C=CCn1c(=O)c2cnc(Nc3ccc(N4CCN(C)CC4)cc3)nc2n1-c1cccc(C(C)(C)O)n1 [AZD1775] + C1CN(CCC1(C(=O)N[C@@H](CCO)C2=CC=C(C=C2)Cl)N)C3=NC=NC4=C3C=CN4 [Capivasertib] (first compound max 3 µM, partner max 3 µM) -0.061

Return Bliss excess for the following compound: COc1cc2c(cc1OCCCCCOc1cc3c(cc1OC)C(=O)N1C=C(C)C[C@H]1C=N3)N=C[C@@H]1CC(C)=CN1C2=O [SG3199] + O=C(c1cc(Cc2n[nH]c(=O)c3ccccc23)ccc1F)N1CCN(C(=O)C2CC2)CC1 [Olaparib] (first compound max 0.001 µM, 7x7, partner max 10 µM) -0.0455

Return Bliss excess for the following compound: Cn1cnc2c(F)c(Nc3ccc(Br)cc3Cl)c(C(=O)NOCCO)cc21 [Selumetinib] + CCN(CCO)CCCOc1ccc2c(Nc3cc(CC(=O)Nc4cccc(F)c4)[nH]n3)ncnc2c1 [AZD2811] (first compound max 10 µM, 7x7, partner max 1 µM) -0.0336

Return Bliss excess for the following compound: COc1nnc2ccc(N3CCC(c4ccc(OCCN5CCN(C)C(=O)[C@H]5C)cc4)CC3)nn12 [AZD5153] + CC1(C)CCC(CN2CCN(c3ccc(C(=O)NS(=O)(=O)c4ccc(NCC5CCOCC5)c([N+](=O)[O-])c4)c(Oc4cnc5[nH]ccc5c4)c3)CC2)=C(c2ccc(Cl)cc2)C1 [Venetoclax] (first compound max 1 µM, 7x7, partner max 1 µM) -0.0486

Return Bliss excess for the following compound: CN(C)CCCOc1ccc(-c2ccc3ncc4c(c3c2)n(C2CCOCC2)c(=O)n4C)cn1 [AZD0156] + C=CCn1c(=O)c2cnc(Nc3ccc(N4CCN(C)CC4)cc3)nc2n1-c1cccc(C(C)(C)O)n1 [AZD1775] (first compound max 1 µM, partner max 1 µM) -0.0751

Return Bliss excess for the following compound: O=C(c1cc(Cc2n[nH]c(=O)c3ccccc23)ccc1F)N1CCN(C(=O)C2CC2)CC1 [Olaparib] + COc1nnc2ccc(N3CCC(c4ccc(OCCN5CCN(C)C(=O)[C@H]5C)cc4)CC3)nn12 [AZD5153] (first compound max 10 µM, 7x7, partner max 1 µM) -0.082

Return Bliss excess for the following compound: CS(=O)(=O)CCNCc1ccc(-c2ccc3ncnc(Nc4ccc(OCc5cccc(F)c5)c(Cl)c4)c3c2)o1 [Lapatinib] + C[C@@H](Oc1cc(-c2cnn(C3CCNCC3)c2)cnc1N)c1c(Cl)ccc(F)c1Cl [Crizotinib] (first compound max 10 µM, 7x7, partner max 10 µM) -0.0653

Return Bliss excess for the following compound: O=C(c1cc(Cc2n[nH]c(=O)c3ccccc23)ccc1F)N1CCN(C(=O)C2CC2)CC1 [Olaparib] + Cc1c2c(nn1C)CSCc1cc(n(C)n1)CSc1cc(c3ccccc3c1)OCCCc1c(C(=O)O)n(C)c3c-2c(Cl)ccc13 [AZD5991] (first compound max 10 µM, 7x7, partner max 1 µM) -0.0247

Return Bliss excess for the following compound: NC1(C(=O)N[C@@H](CCO)c2ccc(Cl)cc2)CCN(c2ncnc3[nH]ccc23)CC1 [Capivasertib] + C[C@@H]1COCCN1C2=NC(=NC(=C2)C3(CC3)[S@](=N)(=O)C)C4=C5C=CNC5=NC=C4 [AZD6738] (first compound max 10 µM, 7x7, partner max 10 µM) -0.0179
